# PROCEDURE TEXT: ABTS radical scavenging activity assessed as trolox equivalent antioxidant capacity
# Format: physicochemical
Readings of Activity for the listed molecules

MOLECULE	Activity
COc1cc2c(=O)c(-c3ccc(O)cc3)coc2cc1O [GLYCITEIN]	0.097 MU
O=c1cc(-c2ccccc2)oc2cc(O)cc(O)c12 [CHRYSIN]	0.081 MU

Q) I would be grateful if you could share the reported Activity for O=C(O[C@@H]1Cc2c(O)cc(O)cc2O[C@@H]1c1cc(O)c(O)c(O)c1)c1cc(O)c(O)c(O)c1 [EPIGALOCATECHIN GALLATE] .
A) 5.95 MU

* * *

# PROCEDURE TEXT: ABTS radical scavenging activity assessed as trolox equivalent antioxidant capacity
# Format: physicochemical
Readings of Activity for the listed compounds
Dear colleague, please return just the value in MU, with no unit written.

Q) I would be grateful if you could share the reported Activity for `O=C1C[C@@H](c2ccc(O)cc2)Oc2cc(O)cc(O)c21` .
A) 0.217

Q) Same again, this time with `O=c1c(O)c(-c2ccccc2)oc2ccccc12`
A) 0.707

Q) Same again, this time with `O=c1cc(-c2ccc(O)cc2)oc2c([C@@H]3O[C@H](CO)[C@@H](O)[C@H](O)[C@H]3O)c(O)cc(O)c12`
A) 0.216

Q) Same again, this time with Oc1cc(O)c2c(c1)O[C@H](c1cc(O)c(O)c(O)c1)[C@H](O)C2 [EPIGALLOCATECHIN]
A) 3.71

Q) Same again, this time with `O=c1c(-c2ccc(O)cc2)coc2cc(O)ccc12`
A) 0.101

Q) Same again, this time with `C[C@@H]1O[C@@H](OC[C@H]2O[C@@H](Oc3c(-c4ccc(O)c(O)c4)oc4cc(O)cc(O)c4c3=O)[C@H](O)[C@@H](O)[C@@H]2O)[C@H](O)[C@H](O)[C@H]1O`
A) 2.02

Q) Same again, this time with `O=c1c(-c2ccc(O)cc2)coc2cc(O[C@@H]3O[C@H](CO)[C@@H](O)[C@H](O)[C@H]3O)cc(O)c12`
A) 0.077

Q) Same again, this time with Oc1cc(O)c2c(c1)O[C@H](c1ccc(O)c(O)c1)[C@H](O)C2 [(-)-EPICATECHIN]
A) 3.08

Q) Same again, this time with `O=C(CCc1ccc(O)cc1)c1c(O)cc(O)cc1O`
A) 1.79

Q) Same again, this time with `O=c1c(-c2ccc(O)cc2)coc2cc(O[C@@H]3O[C@H](CO)[C@@H](O)[C@H](O)[C@H]3O)ccc12`
A) 0.072

Q) Same again, this time with `O=c1c(O)c(-c2ccc(O)cc2)oc2cc(O)cc(O)c12`
A) 1.59

Q) Same again, this time with `O=c1c(O)c(-c2cc(O)c(O)c(O)c2)oc2cc(O)cc(O)c12`
A) 1.31

Q) Same again, this time with O=C(O[C@@H]1Cc2c(O)cc(O)cc2O[C@@H]1c1ccc(O)c(O)c1)c1cc(O)c(O)c(O)c1 [EPICATECHIN GALLATE]
A) 5.29

* * *

Readings of Activity for the listed molecules
# PROCEDURE TEXT: ABTS radical scavenging activity assessed as trolox equivalent antioxidant capacity
# Type: physicochemical
Dear colleague, please return just the value in MU, with no unit written.

Previously resolved entries follow.
MOLECULE	UNITS	Activity
Oc1cc(O)c2c(c1)O[C@H](c1ccc(O)c(O)c1)[C@H](O)[C@H]2c1c(O)cc(O)c2c1O[C@H](c1ccc(O)c(O)c1)[C@H](O)[C@H]2c1c(O)cc(O)c2c1O[C@H](c1ccc(O)c(O)c1)[C@H](O)C2 [PROCYANIDIN C1]	MU	8.29
C[C@@H]1O[C@@H](Oc2cc(O)c3c(=O)c(O[C@@H]4O[C@H](CO)[C@@H](O)[C@H](O)[C@H]4O)c(-c4ccc(O)c(O)c4)oc3c2)[C@@H](O)[C@H](O)[C@@H]1O	MU	1.56

Q) I would be grateful if you could share the reported Activity for O=c1c(O)c(-c2ccc(O)c(O)c2)oc2cc(O)cc(O)c12 [QUERCETIN] .
A) 4.42

* * *

# PROCEDURE TEXT: ABTS radical scavenging activity assessed as trolox equivalent antioxidant capacity
# Assay type: physicochemical
Please mark TRUE if the recorded Activity is equal to or greater than 0.4 MU, and FALSE if it falls below.

COMPOUND	LABEL CLASS
O=c1c(O)c(-c2ccccc2)oc2cc(O)cc(O)c12 [GALANGIN]	TRUE
O=C(O[C@H]1Cc2c(O)cc(O)cc2O[C@@H]1c1ccc(O)c(O)c1)c1cc(O)c(O)c(O)c1 [CATECHIN GALLATE]	TRUE
O=c1cc(-c2ccccc2)oc2cc(O)c(O)c(O)c12 [BAICALEIN]	TRUE

Q) Quick check, Activity >= 0.4 MU? O=C(/C=C/c1ccc(O)c(O)c1)c1ccc(O)cc1O [BUTEIN]
A) TRUE

Q) Same again, this time with COc1ccc([C@@H]2CC(=O)c3c(O)cc(O[C@@H]4O[C@H](CO[C@@H]5O[C@@H](C)[C@H](O)[C@@H](O)[C@H]5O)[C@@H](O)[C@H](O)[C@H]4O)cc3O2)cc1O [HESPERIDIN]
A) FALSE

Q) Same again, this time with C[C@@H]1O[C@@H](O[C@H]2[C@H](Oc3cc(O)c4c(c3)O[C@H](c3ccc(O)cc3)CC4=O)O[C@H](CO)[C@@H](O)[C@@H]2O)[C@H](O)[C@H](O)[C@H]1O [NARINGIN]
A) FALSE

* * *

# PROCEDURE TEXT: ABTS radical scavenging activity assessed as trolox equivalent antioxidant capacity
# Assay type: physicochemical
Readings of Activity for the listed molecules
I'd appreciate it if you included the unit after the number.

Previously resolved entries follow.
INPUT SMILES	Activity
O=c1cc(-c2ccc(O)cc2)oc2cc(O)cc(O)c12	0.086 MU
O=c1c(O[C@@H]2O[C@H](CO)[C@@H](O)[C@H](O)[C@H]2O)c(-c2ccc(O)c(O)c2)oc2cc(O)cc(O)c12	2.39 MU
O=c1cc(-c2ccc(O)c(O)c2)oc2cc(O)cc(O)c12	2.18 MU
Oc1cc(O)c2c(c1)O[C@H](c1ccc(O)c(O)c1)[C@H](O)[C@H]2c1c(O)cc(O)c2c1O[C@H](c1ccc(O)c(O)c1)[C@@H](O)C2	6.14 MU
O=c1cc(-c2ccc(O)cc2)oc2cc(O[C@@H]3O[C@H](CO)[C@@H](O)[C@H](O)[C@H]3O)cc(O)c12	0.083 MU
C[C@@H]1O[C@@H](Oc2c(-c3ccc(O)c(O)c3)oc3cc(O)cc(O)c3c2=O)[C@H](O)[C@H](O)[C@H]1O	2.18 MU

For the next question, use this molecule.
Q) I would be grateful if you could share the reported Activity for `O=C(O)[C@H]1O[C@@H](Oc2cc3oc(-c4ccccc4)cc(=O)c3c(O)c2O)[C@H](O)[C@@H](O)[C@@H]1O` .
A) 1.55 MU

* * *

Readings of Activity for the listed compounds
# PROCEDURE TEXT: ABTS radical scavenging activity assessed as trolox equivalent antioxidant capacity
# Type: physicochemical
Dear colleague, please return just the value in MU, with no unit written.

Previously resolved entries follow.
INPUT SMILES	UNITS	Activity
O=c1c(-c2ccc(O)cc2)coc2cc(O)cc(O)c12	MU	0.123
O=c1cc(-c2ccc(O)c(O)c2)oc2cc(O[C@@H]3O[C@H](CO)[C@@H](O)[C@H](O)[C@H]3O)cc(O)c12	MU	1.47

Q) I would be grateful if you could share the reported Activity for `Oc1cc(O)c2c(c1)O[C@H](c1ccc(O)c(O)c1)[C@@H](O)C2` .
A) 3.04

Q) Same again, this time with `O=c1c(O)c(-c2ccc(O)cc2O)oc2cc(O)cc(O)c12`
A) 2.68
